- Species: Rattus norvegicus
- method-description: Open TG-GATES - Regimen: Single
- Format: toxicity, organism-based, Sprague-Dawley
- Parameters: regimen Single, gender Male, age 6 weeks
- test-settings: in vivo, po, 100 mg/kg, 9 h, tissue Plasma, route gavage, dose level Low
test-readout: Ca (mg/dL)
# output: bare number, implied unit mg/dL

For CNC(=C[N+](=O)[O-])NCCSCc1ccc(CN(C)C)o1 , write its Ca.
10.3

For CN/C(=N/CCSCc1nc[nH]c1C)NC#N , write its Ca.
10.5

For Cc1nnc2n1-c1ccc(Cl)cc1C(c1ccccc1Cl)=NC2 , write its Ca.
10.8

For O=C(OC[C@H]1O[C@@H](OC(=O)c2cc(O)c(O)c(OC(=O)c3cc(O)c(O)c(O)c3)c2)[C@H](OC(=O)c2cc(O)c(O)c(OC(=O)c3cc(O)c(O)c(O)c3)c2)[C@@H](OC(=O)c2cc(O)c(O)c(OC(=O)c3cc(O)c(O)c(O)c3)c2)[C@@H]1OC(=O)c1cc(O)c(O)c(OC(=O)c2cc(O)c(O)c(O)c2)c1)c1cc(O)c(O)c(OC(=O)c2cc(O)c(O)c(O)c2)c1 , write its Ca.
10.3

For COC(=O)C1=C(C)NC(C)=C(C(=O)OC)C1c1ccccc1[N+](=O)[O-] , write its Ca.
10.9

---

- Organism: Rattus norvegicus
- method-description: Open TG-GATES - Regimen: Daily Repeat
- Assay type: toxicity, organism-based, Sprague-Dawley
- Design: regimen Daily Repeat, gender Male, age 6 weeks
- test-settings: in vivo, po, 100 mg/kg, 72 h, tissue Blood, route gavage, dose level Low, time 3 day
test-readout: Bas
Answer as a quantity: numeral, then unit.

For Cc1nnc2n1-c1ccc(Cl)cc1C(c1ccccc1Cl)=NC2 , write its Bas.
0%

For CCOc1ccc(NC(C)=O)cc1 , write its Bas.
0%

For COC(=O)C1=C(C)NC(C)=C(C(=O)OC)C1c1ccccc1[N+](=O)[O-] , write its Bas.
0%

For O=C(OC[C@H]1O[C@@H](OC(=O)c2cc(O)c(O)c(OC(=O)c3cc(O)c(O)c(O)c3)c2)[C@H](OC(=O)c2cc(O)c(O)c(OC(=O)c3cc(O)c(O)c(O)c3)c2)[C@@H](OC(=O)c2cc(O)c(O)c(OC(=O)c3cc(O)c(O)c(O)c3)c2)[C@@H]1OC(=O)c1cc(O)c(O)c(OC(=O)c2cc(O)c(O)c(O)c2)c1)c1cc(O)c(O)c(OC(=O)c2cc(O)c(O)c(O)c2)c1 , write its Bas.
0%

For CNC(=C[N+](=O)[O-])NCCSCc1ccc(CN(C)C)o1 , write its Bas.
0%

For CN/C(=N/CCSCc1nc[nH]c1C)NC#N , write its Bas.
0.2%

---

Please respond with reported KIDNEY_R for every item in the list.
- Species: Rattus norvegicus
- method-description: Open TG-GATES - Regimen: Single
- Assay type: toxicity, organism-based, Sprague-Dawley
- Parameters: regimen Single, gender Male, age 6 weeks
- test-settings: in vivo, po, 1000 mg/kg, 24 h, tissue Kidney, route gavage, dose level High
# output: bare number, implied unit g

For O=C(OC[C@H]1O[C@@H](OC(=O)c2cc(O)c(O)c(OC(=O)c3cc(O)c(O)c(O)c3)c2)[C@H](OC(=O)c2cc(O)c(O)c(OC(=O)c3cc(O)c(O)c(O)c3)c2)[C@@H](OC(=O)c2cc(O)c(O)c(OC(=O)c3cc(O)c(O)c(O)c3)c2)[C@@H]1OC(=O)c1cc(O)c(O)c(OC(=O)c2cc(O)c(O)c(O)c2)c1)c1cc(O)c(O)c(OC(=O)c2cc(O)c(O)c(O)c2)c1 , write its KIDNEY_R.
0.9

For Cc1nnc2n1-c1ccc(Cl)cc1C(c1ccccc1Cl)=NC2 , write its KIDNEY_R.
0.9

For CNC(=C[N+](=O)[O-])NCCSCc1ccc(CN(C)C)o1 , write its KIDNEY_R.
1

For COC(=O)C1=C(C)NC(C)=C(C(=O)OC)C1c1ccccc1[N+](=O)[O-] , write its KIDNEY_R.
0.9

For CN/C(=N/CCSCc1nc[nH]c1C)NC#N , write its KIDNEY_R.
1
